Provide the reported Cmax of each item.
Test: Pharmacokinetic properties in vivo in female Balb/c Nude mice
Design: species or system mouse
Conditions: mouse, plasma, 10 mg/kg oral gavage
Numeric answer only, unit µM assumed.

Cmax reported for this compound C[C@@H]1COCCN1c1cc(-c2ccnn2C)nc(-c2ccnc3[nH]ccc23)n1 : 4.56

Cmax reported for this compound Cc1nnc(C)n1-c1cc(N2CCOC[C@H]2C)nc(-c2cccc3[nH]ccc23)n1 : 7.72

Cmax reported for this compound Cc1nnn(C)c1-c1cc(N2CCOC[C@H]2C)nc(-c2ccnc3[nH]ccc23)n1 : 2.86

Cmax reported for this compound Cc1cnn(C)c1-c1cc(N2CCOC[C@H]2C)nc(-c2cc(CO)cc3[nH]ccc23)n1 : 6.5

###

Provide the reported F of each item.
Assay: Pharmacokinetic properties in vivo in female Balb/c Nude mice
Design: species or system mouse
Details: oral bioavailability, 10 mg/kg oral vs 1 mg/kg IV
Numeric answer only, unit % assumed.

F reported for this molecule C[C@@H]1COCCN1c1cc(-c2ccnn2C)nc(-c2ccnc3[nH]ccc23)n1 : 96.0

F reported for this molecule Cc1cnn(C)c1-c1cc(N2CCOC[C@H]2C)nc(-c2cc(CO)cc3[nH]ccc23)n1 : 129.0

F reported for this molecule Cc1nnc(C)n1-c1cc(N2CCOC[C@H]2C)nc(-c2cccc3[nH]ccc23)n1 : 123.0

F reported for this molecule Cc1nnn(C)c1-c1cc(N2CCOC[C@H]2C)nc(-c2ccnc3[nH]ccc23)n1 : 71.7

###

Target: human ATR kinase (Homo sapiens (Human), UniProt Q13535)
Sequence (Q13535 whole entry): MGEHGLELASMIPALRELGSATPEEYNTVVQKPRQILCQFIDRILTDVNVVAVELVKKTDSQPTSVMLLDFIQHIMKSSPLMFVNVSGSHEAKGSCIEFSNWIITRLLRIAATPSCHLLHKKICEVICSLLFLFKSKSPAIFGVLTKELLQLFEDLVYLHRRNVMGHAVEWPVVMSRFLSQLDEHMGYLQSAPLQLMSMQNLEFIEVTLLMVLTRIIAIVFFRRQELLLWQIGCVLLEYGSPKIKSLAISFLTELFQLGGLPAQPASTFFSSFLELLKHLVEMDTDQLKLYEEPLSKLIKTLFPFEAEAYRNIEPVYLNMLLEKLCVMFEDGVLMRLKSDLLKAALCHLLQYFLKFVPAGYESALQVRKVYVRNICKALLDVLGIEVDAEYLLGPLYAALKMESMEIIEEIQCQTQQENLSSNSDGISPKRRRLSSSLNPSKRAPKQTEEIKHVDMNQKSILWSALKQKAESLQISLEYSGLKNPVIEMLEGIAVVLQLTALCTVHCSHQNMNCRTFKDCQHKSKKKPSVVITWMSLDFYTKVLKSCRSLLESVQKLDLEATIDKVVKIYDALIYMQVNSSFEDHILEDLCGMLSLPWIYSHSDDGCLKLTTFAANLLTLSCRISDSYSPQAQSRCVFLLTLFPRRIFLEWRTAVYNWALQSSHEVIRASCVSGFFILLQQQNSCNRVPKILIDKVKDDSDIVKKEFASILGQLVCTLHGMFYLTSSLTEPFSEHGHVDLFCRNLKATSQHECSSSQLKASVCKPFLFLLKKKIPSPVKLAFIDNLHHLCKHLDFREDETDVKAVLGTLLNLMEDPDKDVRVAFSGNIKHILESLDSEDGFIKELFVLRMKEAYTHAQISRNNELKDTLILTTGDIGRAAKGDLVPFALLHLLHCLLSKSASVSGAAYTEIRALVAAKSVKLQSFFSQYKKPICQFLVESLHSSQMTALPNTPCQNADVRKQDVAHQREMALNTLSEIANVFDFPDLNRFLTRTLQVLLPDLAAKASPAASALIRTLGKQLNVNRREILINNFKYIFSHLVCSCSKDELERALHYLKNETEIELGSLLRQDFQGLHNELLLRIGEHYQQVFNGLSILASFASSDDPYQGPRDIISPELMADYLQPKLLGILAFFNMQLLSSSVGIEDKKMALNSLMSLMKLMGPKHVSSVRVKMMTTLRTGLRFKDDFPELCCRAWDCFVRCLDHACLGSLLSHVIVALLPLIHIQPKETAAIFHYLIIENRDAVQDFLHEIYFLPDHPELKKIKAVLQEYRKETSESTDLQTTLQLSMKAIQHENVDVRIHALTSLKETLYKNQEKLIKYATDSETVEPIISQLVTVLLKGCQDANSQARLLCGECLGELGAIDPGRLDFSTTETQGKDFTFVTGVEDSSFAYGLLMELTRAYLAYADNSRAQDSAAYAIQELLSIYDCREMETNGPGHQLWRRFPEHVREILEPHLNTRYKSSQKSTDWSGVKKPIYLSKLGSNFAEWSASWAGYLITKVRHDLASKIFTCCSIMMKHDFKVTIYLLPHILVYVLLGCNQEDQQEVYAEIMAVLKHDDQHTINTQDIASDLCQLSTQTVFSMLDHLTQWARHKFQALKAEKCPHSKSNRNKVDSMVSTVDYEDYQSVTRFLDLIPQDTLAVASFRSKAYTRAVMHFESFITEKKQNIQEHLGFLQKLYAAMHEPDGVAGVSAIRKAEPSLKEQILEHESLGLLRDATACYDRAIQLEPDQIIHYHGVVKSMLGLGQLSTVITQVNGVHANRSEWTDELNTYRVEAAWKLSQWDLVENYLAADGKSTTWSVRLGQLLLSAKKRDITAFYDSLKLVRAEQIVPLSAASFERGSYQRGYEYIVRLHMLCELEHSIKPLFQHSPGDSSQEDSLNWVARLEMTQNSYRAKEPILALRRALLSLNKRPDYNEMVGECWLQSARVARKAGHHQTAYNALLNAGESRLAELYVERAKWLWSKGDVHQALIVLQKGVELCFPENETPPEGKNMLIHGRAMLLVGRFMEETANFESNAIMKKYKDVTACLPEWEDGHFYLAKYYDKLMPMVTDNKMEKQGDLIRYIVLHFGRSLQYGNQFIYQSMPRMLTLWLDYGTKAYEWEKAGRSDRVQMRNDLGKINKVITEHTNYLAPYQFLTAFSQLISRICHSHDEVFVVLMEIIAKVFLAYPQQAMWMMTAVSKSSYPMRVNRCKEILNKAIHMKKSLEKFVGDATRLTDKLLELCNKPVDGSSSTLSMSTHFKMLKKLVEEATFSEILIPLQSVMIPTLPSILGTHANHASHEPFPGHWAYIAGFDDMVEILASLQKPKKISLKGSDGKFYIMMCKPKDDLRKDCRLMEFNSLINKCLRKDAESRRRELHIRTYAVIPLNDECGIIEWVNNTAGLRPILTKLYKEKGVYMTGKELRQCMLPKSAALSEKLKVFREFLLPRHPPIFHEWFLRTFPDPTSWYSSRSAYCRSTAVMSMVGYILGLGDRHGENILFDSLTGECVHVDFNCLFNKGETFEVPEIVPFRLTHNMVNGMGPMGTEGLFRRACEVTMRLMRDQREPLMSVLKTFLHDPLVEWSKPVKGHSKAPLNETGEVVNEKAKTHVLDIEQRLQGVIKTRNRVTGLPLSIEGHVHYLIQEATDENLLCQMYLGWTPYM
Sequence (Q8WXE1 whole entry partner): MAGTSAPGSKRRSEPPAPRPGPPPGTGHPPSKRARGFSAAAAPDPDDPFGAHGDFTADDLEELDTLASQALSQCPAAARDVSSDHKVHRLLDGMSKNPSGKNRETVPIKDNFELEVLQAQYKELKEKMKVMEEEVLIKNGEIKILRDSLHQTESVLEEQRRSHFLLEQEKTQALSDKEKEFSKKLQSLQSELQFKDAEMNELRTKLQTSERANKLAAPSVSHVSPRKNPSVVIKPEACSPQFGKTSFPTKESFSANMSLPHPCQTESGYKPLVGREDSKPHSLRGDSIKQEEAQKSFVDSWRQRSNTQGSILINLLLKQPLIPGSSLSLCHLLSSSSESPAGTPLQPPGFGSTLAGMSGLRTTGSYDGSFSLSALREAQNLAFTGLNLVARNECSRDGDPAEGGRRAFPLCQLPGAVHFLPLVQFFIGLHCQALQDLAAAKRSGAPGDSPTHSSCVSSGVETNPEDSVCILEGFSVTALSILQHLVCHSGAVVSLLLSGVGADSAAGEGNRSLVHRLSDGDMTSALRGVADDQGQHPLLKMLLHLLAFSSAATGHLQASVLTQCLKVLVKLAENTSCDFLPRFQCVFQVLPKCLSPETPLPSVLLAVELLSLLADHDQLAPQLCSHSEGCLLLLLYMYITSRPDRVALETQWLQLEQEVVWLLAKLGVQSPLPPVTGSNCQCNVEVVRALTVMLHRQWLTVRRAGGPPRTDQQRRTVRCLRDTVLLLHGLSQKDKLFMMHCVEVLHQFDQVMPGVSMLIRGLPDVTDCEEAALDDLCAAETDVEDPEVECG
Assay: In vitro evaluation of inhibitory activity on human ATR kinase (HTRF, ATR/ATRIP(h), GST-cMyc-p53 substrate)
Type: biochemical
Conditions: 50 nM GST-cMyc-p53, 30 min room temperature
REPORTED ENDPOINT: pIC50
As a rule, pIC50 stands for the negative log10 of the concentration, concentration in M.

pIC50 reported for this compound Cc1cc(-c2cc(N3CCOC[C@H]3C)nc(-c3cc(F)cc4[nH]ccc34)n2)n(C)n1 : 7.16

pIC50 reported for this compound C[C@@H]1COCCN1c1nc(-c2cc(F)cc3[nH]ccc23)cc(-c2ccnn2C)n1 : 6.43

pIC50 reported for this compound Cc1nn(C)c(C)c1-c1cc(N2CCOC[C@H]2C)nc(-c2ccnc3[nH]ccc23)n1 : 7.74

pIC50 reported for this compound Cc1nnn(C2CC2)c1-c1cc(N2CCOC[C@H]2C)nc(-c2cc(CO)cc3[nH]ccc23)n1 : 7.59

pIC50 reported for this compound Cc1nnn(C)c1-c1cc(N2CCOC[C@H]2C)nc(-c2cc(F)cc3[nH]ccc23)n1 : 7.85

pIC50 reported for this compound Cc1cc(-c2cc(N3CCOC[C@H]3C)nc(-c3ccnc4[nH]ccc34)n2)n(C)n1 : 7.01

pIC50 reported for this compound Cc1cnn(C)c1-c1cc(-c2ccnc3[nH]ccc23)nc(N2CCOC[C@H]2C)c1 : 7.41

pIC50 reported for this compound Cc1nnc(C)n1-c1cc(-c2cccc3[nH]ccc23)nc(N2CCOC[C@H]2C)n1 : 7.70

pIC50 reported for this compound Cc1noc(C)c1-c1cc(N2CCOC[C@H]2C)nc(-c2cc(CO)cc3[nH]ccc23)n1 : 7.49

pIC50 reported for this compound Cc1nnc(C)n1-c1cc(-c2cc(F)cc3[nH]ccc23)nc(N2CCOC[C@H]2C)c1 : 7.57

pIC50 reported for this compound Cc1cnn(C)c1-c1cc(N2CCOC[C@H]2C)nc(-c2cc(CO)cc3[nH]ccc23)n1 : 7.54

pIC50 reported for this compound C[C@@H]1COCCN1c1cc(-c2cnn(C)c2CO)nc(-c2ccnc3[nH]ccc23)n1 : 7.02

pIC50 reported for this compound C[C@@H]1COCCN1c1cc(-c2cn(C)nc2C(F)(F)F)nc(-c2ccnc3[nH]ccc23)n1 : 6.91

pIC50 reported for this compound Cc1nnn(C2CC2)c1-c1cc(N2CCOC[C@H]2C)nc(-c2ccnc3[nH]ccc23)n1 : 7.19

pIC50 reported for this compound C[C@@H]1COCCN1c1cc(-c2ccnn2C)nc(-c2cc(F)cc3[nH]ccc23)n1 : 7.09

pIC50 reported for this compound Cc1cnn(C)c1-c1cc(N2CCOC[C@H]2C)nc(-c2cccc3[nH]ccc23)n1 : 7.62

pIC50 reported for this compound C[C@@H]1COCCN1c1cc(-c2ccnn2C)cc(-c2ccnc3[nH]ccc23)n1 : 6.70

###

Test system: tumor cell line LoVo
Test: In vitro cell viability test (CellTiter-Glo), LoVo cell proliferation inhibition
Assay type: cell-based
Settings: Homo sapiens
REPORTED ENDPOINT: pIC50
As a rule, pIC50 stands for the negative log10 of the concentration, concentration in M.

pIC50 reported for this molecule C[C@@H]1COCCN1c1cc(-c2ccnn2C)nc(-c2ccnc3[nH]ccc23)n1 : 6.39

pIC50 reported for this molecule Cc1nnn(C2CC2)c1-c1cc(N2CCOC[C@H]2C)nc(-c2ccnc3[nH]ccc23)n1 : 6.12

pIC50 reported for this molecule C[C@@H]1COCCN1c1cc(C2([S@](C)(=N)=O)CC2)nc(-c2ccnc3[nH]ccc23)n1 [AZD6738, reference compound] : 6.09

pIC50 reported for this molecule Cc1cnn(C)c1-c1cc(N2CCOC[C@H]2C)nc(-c2cc(CO)cc3[nH]ccc23)n1 : 6.29

pIC50 reported for this molecule Cc1nnc(C)n1-c1cc(N2CCOC[C@H]2C)nc(-c2cc(F)cc3[nH]ccc23)n1 : 6.46

pIC50 reported for this molecule Cc1nnc(C)n1-c1cc(N2CCOC[C@H]2C)nc(-c2cccc3[nH]ccc23)n1 : 6.12

###

Provide the reported clearance of each item.
Assay: Pharmacokinetic properties in vivo in female Balb/c Nude mice
Set-up: species or system mouse
Details: mouse, plasma, 1 mg/kg IV

clearance reported for this molecule Cc1cnn(C)c1-c1cc(N2CCOC[C@H]2C)nc(-c2cc(CO)cc3[nH]ccc23)n1 : 34.3 mL/min/kg

clearance reported for this molecule Cc1nnn(C)c1-c1cc(N2CCOC[C@H]2C)nc(-c2ccnc3[nH]ccc23)n1 : 53.9 mL/min/kg

clearance reported for this molecule Cc1nnc(C)n1-c1cc(N2CCOC[C@H]2C)nc(-c2cccc3[nH]ccc23)n1 : 48.3 mL/min/kg

clearance reported for this molecule C[C@@H]1COCCN1c1cc(-c2ccnn2C)nc(-c2ccnc3[nH]ccc23)n1 : 47 mL/min/kg

###

Provide the reported C0 of each item.
Assay: Pharmacokinetic properties in vivo in female Balb/c Nude mice
Design: species or system mouse
Settings: mouse, plasma, 1 mg/kg IV, drug concentration at 0 min
Numeric answer only, unit nM assumed.

C0 reported for this compound Cc1nnc(C)n1-c1cc(N2CCOC[C@H]2C)nc(-c2cccc3[nH]ccc23)n1 : 1580

C0 reported for this compound Cc1nnn(C)c1-c1cc(N2CCOC[C@H]2C)nc(-c2ccnc3[nH]ccc23)n1 : 1260

C0 reported for this compound Cc1cnn(C)c1-c1cc(N2CCOC[C@H]2C)nc(-c2cc(CO)cc3[nH]ccc23)n1 : 1960

C0 reported for this compound C[C@@H]1COCCN1c1cc(-c2ccnn2C)nc(-c2ccnc3[nH]ccc23)n1 : 1960

###

REPORTED ENDPOINT: IC50 (nM)
Numeric answer only, unit nM assumed.

# IC50 measured on human ATR kinase (Homo sapiens (Human), UniProt Q13535) for item COCc1cnn(C)c1-c1cc(N2CCOC[C@H]2C)nc(-c2ccnc3[nH]ccc23)n1 [WX43] = 65

# IC50 measured on human ATR kinase (Homo sapiens (Human), UniProt Q13535) for item C[C@@H]1COCCN1c1nc(-c2ccnc3[nH]ccc23)cc(-c2ccnn2C)n1 [WX06] = 245

# IC50 measured on human ATR kinase (Homo sapiens (Human), UniProt Q13535) for item Cc1cnn(C)c1-c1cc(-c2cccc3[nH]ccc23)nc(N2CCOC[C@H]2C)n1 [WX12] = 41

# IC50 measured on human ATR kinase (Homo sapiens (Human), UniProt Q13535) for item Cc1cnn(C)c1-c1cc(N2CCOC[C@H]2C)nc(-c2ccnc3[nH]ccc23)n1 [WX17] = 12

# IC50 measured on human ATR kinase (Homo sapiens (Human), UniProt Q13535) for item C[C@@H]1COCCN1c1cc(-c2ccnn2C)nc(-c2ccnc3[nH]ccc23)n1 [WX15] = 159

# IC50 measured on human ATR kinase (Homo sapiens (Human), UniProt Q13535) for item Cc1ncn(C)c1-c1cc(N2CCOC[C@H]2C)nc(-c2ccnc3[nH]ccc23)n1 [WX44] = 65

# IC50 measured on human ATR kinase (Homo sapiens (Human), UniProt Q13535) for item CCn1nccc1-c1cc(N2CCOC[C@H]2C)nc(-c2cccc3[nH]ccc23)n1 [WX14] = 50

###

Assay: Pharmacokinetic properties in vivo in female Balb/c Nude mice
Design: species or system mouse
Details: mouse, plasma, 10 mg/kg oral gavage
REPORTED ENDPOINT: AUC(0-t) (µM·h)
Numeric answer only, unit µM·h assumed.

AUC(0-t) reported for this compound Cc1cnn(C)c1-c1cc(N2CCOC[C@H]2C)nc(-c2cc(CO)cc3[nH]ccc23)n1 [WX42] : 15

AUC(0-t) reported for this compound Cc1nnc(C)n1-c1cc(N2CCOC[C@H]2C)nc(-c2cccc3[nH]ccc23)n1 [WX45] : 10.9

AUC(0-t) reported for this compound Cc1nnn(C)c1-c1cc(N2CCOC[C@H]2C)nc(-c2ccnc3[nH]ccc23)n1 [WX34] : 5.68

AUC(0-t) reported for this compound C[C@@H]1COCCN1c1cc(-c2ccnn2C)nc(-c2ccnc3[nH]ccc23)n1 [WX15] : 8.75
